- assay summary: NBI-750142 concentration in cynomolgus monkey plasma by LC-MS/MS
- Type: in vivo, cynomolgus monkeys (Macaca fascicularis)
- conditions used: cynomolgus monkey, intravenous, 0.52 mg/kg, EC865, 0.52 mg/kg i.v.
value type: concentration at 180 min (ng/mL)

chemical_structure=COc1cc2c(cc1OC)[C@H]1CN(C)[C@H](CC(C)(C)C)CN1CC2 measured_number=41.3

----------
- assay summary: NBI-750142 concentration in cynomolgus monkey plasma by LC-MS/MS
- Type: in vivo, cynomolgus monkeys (Macaca fascicularis)
- conditions used: cynomolgus monkey, intravenous, 0.52 mg/kg, EC865, 0.52 mg/kg i.v.
- Procedure: During each scan, whole blood PK samples were collected (in K2 EDTA tubes) at pre-dose (−5 min), and post-dose at 1 (end of bolus), 30, 60 (just prior to [^18F]AV-133 radiopharmaceutical administration), 90, 120, 150, 180 (end of scan) minutes after test article administration. PK samples were approximately 1 mL each (8 mL total, including pre-dose sample). […] NBI-750142 concentration in cynomolgus monkey plasma samples was analyzed using a qualified LC-MS/MS bioanalytical method. […]
value type: concentration at 1 min (ng/mL)

chemical_structure=COc1cc2c(cc1OC)[C@H]1CN(C)[C@H](CC(C)(C)C)CN1CC2 measured_number=295

Source of measurements: patent US20250064990A1
